So I've got a bunch of molecules here, and I need their IC50 values.
- assay_target: Prostaglandin G/H synthase 1 (Ovis aries)
- Sequence (P05979 whole entry): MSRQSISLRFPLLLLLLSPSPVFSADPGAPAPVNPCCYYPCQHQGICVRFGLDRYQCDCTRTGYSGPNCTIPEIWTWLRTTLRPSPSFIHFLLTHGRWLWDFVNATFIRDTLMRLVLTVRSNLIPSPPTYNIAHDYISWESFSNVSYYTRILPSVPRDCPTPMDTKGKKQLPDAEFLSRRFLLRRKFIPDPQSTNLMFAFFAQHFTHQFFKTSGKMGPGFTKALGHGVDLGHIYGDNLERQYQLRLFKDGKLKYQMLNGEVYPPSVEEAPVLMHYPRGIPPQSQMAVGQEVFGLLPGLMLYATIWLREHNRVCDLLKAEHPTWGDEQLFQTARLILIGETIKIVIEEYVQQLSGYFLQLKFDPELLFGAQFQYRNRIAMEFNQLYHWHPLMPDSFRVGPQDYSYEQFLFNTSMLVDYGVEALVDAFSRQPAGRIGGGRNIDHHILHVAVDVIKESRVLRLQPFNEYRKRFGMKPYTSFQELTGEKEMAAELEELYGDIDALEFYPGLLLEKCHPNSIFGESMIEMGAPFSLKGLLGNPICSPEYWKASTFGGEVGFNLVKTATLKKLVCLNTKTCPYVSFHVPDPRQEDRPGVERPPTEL
Give bare numbers, in µM.

// below: answered molecules
{"structure": "Cc1cc(-c2ccc(NS(C)(=O)=O)cc2)n(-c2ccc(Br)cc2)n1", "IC50 / µM": 63}
{"structure": "CC(=O)Nc1ccc(-c2cc(C(F)(F)F)nn2-c2ccc(Br)cc2)cc1", "IC50 / µM": 3.5}

Consider the additional molecule presented here.
Problem: Give IC50 for CC(=O)Nc1ccc(-c2cc(C)nn2-c2ccc(Br)cc2)cc1 tested on Prostaglandin G/H synthase 1 (Ovis aries).
Solution: 13.3

Numbers sourced from ChEMBL document CHEMBL1147488.
